Origin of the recorded values: patent US10800813

Tested system: T1, human plasma Kallikrein (human, UniProt P03952 20-638, limits assumed)
T1 construct: also called hPK; human PK
T1 sequence (P03952 20-638 limits assumed): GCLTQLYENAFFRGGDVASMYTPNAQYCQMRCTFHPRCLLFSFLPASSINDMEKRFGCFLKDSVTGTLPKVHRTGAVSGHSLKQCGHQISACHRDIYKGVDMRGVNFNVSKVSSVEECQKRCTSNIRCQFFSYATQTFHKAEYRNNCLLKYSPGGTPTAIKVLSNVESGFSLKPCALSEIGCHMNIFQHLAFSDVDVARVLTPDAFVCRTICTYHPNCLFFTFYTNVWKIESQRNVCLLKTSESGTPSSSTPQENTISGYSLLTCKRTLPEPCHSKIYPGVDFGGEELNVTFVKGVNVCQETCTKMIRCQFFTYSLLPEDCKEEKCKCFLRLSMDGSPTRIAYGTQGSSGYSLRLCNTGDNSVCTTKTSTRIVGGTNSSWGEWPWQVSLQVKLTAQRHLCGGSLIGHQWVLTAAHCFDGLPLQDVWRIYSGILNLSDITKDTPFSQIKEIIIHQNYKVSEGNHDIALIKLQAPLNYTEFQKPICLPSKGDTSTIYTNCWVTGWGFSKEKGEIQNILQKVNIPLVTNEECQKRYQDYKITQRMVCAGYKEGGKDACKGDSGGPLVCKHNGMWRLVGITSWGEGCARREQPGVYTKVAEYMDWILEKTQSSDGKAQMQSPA
Protocol description: enzyme inhibition assay
Numbered stars: 1 amine (or outer) side, 2 acyl side, 3 side chain; on linkers, the order of the positions; unused ones are H or OH. Bridge positions count the residues as written; N and C are the ends. Square brackets hold non-standard residues; d marks the D form. TBMB = c1c(C[*:1])cc(C[*:3])cc1C[*:2]; NMeR = CN[C@@H](CCCNC(=N)N)C(=O)O
Endpoint: Ki (nM)

| Binder | Endpoint | Result number |
| --- | --- | --- |
| Ac-CSWPA[NMeR]CLHQDLC-NH2 (linker 1-7-13 via TBMB; SMILES CC(=O)N[C@H]1CSCc2cc3cc(c2)CSC[C@H](NC(=O)[C@H](CCCNC(=N)N)N(C)C(=O)[C@H](C)NC(=O)[C@@H]2CCCN2C(=O)[C@H](Cc2c[nH]c4ccccc24)NC(=O)[C@H](CO)NC1=O)C(=O)N[C@@H](CC(C)C)C(=O)N[C@@H](Cc1c[nH]cn1)C(=O)N[C@@H](CCC(N)=O)C(=O)N[C@@H](CC(=O)O)C(=O)N[C@@H](CC(C)C)C(=O)N[C@H](C(N)=O)CSC3) [Ac-(06-34-18) NMeArg5] | Ki | 3.5 |
